Values were extracted from patent US20060252744A1.

Biological target: human D2 dopamine receptor (Homo sapiens, UniProt P14416)
Sequence (P14416 whole entry): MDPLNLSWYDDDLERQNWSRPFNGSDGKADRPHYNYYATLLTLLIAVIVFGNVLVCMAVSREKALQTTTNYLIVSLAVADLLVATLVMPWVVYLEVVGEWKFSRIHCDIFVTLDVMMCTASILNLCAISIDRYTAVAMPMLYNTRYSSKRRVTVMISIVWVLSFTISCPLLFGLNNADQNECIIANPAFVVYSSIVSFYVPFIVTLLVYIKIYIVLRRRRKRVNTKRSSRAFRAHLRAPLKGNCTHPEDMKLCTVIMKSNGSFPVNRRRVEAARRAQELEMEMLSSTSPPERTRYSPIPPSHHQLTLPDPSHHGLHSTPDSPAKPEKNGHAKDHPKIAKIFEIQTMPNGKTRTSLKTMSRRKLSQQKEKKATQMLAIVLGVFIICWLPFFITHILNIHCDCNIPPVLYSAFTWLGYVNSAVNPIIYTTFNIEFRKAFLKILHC
Assay: R-SAT functional receptor assay, D2 receptor co-expressed with Gαo
Details: read-out: D2 basal (basal response, no drug = 100%)
Exam item: assign t to entries whose activity at 1 µM is below 60% and f to entries at or above 60%. Note that a value of exactly 60% receives f.

Example entries begin here.
O=C(CCCN1CCC(O)(c2ccc(Br)cc2)CC1)c1ccc(F)cc1 :: t
CN1CCN(CCCN2c3ccccc3Sc3ccc(C(F)(F)F)cc32)CC1 :: t
O=c1[nH]c2ccccc2n1C1CCN(CCCC(c2ccc(F)cc2)c2ccc(F)cc2)CC1 [pimozide] :: t
O=C1NCN(c2ccccc2)C12CCN(CCCC(c1ccc(F)cc1)c1ccc(F)cc1)CC2 :: t
CN1CCN(CC/C=C2/c3ccccc3Sc3ccc(S(=O)(=O)N(C)C)cc32)CC1 :: f
CC1CCN(CCCC(=O)c2ccc(F)cc2)CC1 :: f
Cc1ccc(C2(O)CCN(CCCC(=O)c3ccc(F)cc3)CC2)cc1 :: f
CN1CCN(C2=Nc3ccccc3Cc3ccccc32)CC1 :: t

stdin: Hi there! Is activity at 1 µM for CCc1c(C)[nH]c2c1C(=O)C(CN1CCOCC1)CC2 (stereo not drawn) below 60%, do you know?
stdout: f

stdin: Hi there! Is activity at 1 µM for O=C(CCCN1CCC(O)(c2cccc(C(F)(F)F)c2)CC1)c1ccc(F)cc1 below 60%, do you know?
stdout: t

stdin: Hi there! Is activity at 1 µM for CSc1ccc2c(c1)N(CCC1CCCCN1C)c1ccccc1S2 (stereo not drawn) below 60%, do you know?
stdout: f

stdin: Hi there! Is activity at 1 µM for CCN(CC)CCNC(=O)c1cc(S(C)(=O)=O)ccc1OC [tiapride] below 60%, do you know?
stdout: f

stdin: Hi there! Is activity at 1 µM for CN(C)CCCN1c2ccccc2Sc2ccccc21 below 60%, do you know?
stdout: f

stdin: Hi there! Is activity at 1 µM for CN1CCN(CCCN2c3ccccc3Sc3ccc(Cl)cc32)CC1 below 60%, do you know?
stdout: t

stdin: Hi there! Is activity at 1 µM for OCCN1CCN([C@@H]2C[C@@H](c3ccc(F)cc3)c3ccc(C(F)(F)F)cc32)CC1 (racemic) below 60%, do you know?
stdout: f

###

Molecular target: human D2 dopamine receptor (Homo sapiens, UniProt P14416)
Assay: R-SAT functional receptor assay, D2 receptor co-expressed with Gαo
VALUE_KIND: pEC50
Would you please state pEC50, meaning minus log10 of the concentration in mol/L, as a bare number?

stdin: Query pEC50 on human D2 dopamine receptor (Homo sapiens, UniProt P14416) for Clc1ccc2c(c1)N=C(N1CCNCC1)c1ccccc1N2 [N-desmethylclozapine]
stdout: 7.50

###

Molecular target: human D2 dopamine receptor (Homo sapiens)
Assay: R-SAT functional receptor assay, D2 receptor co-expressed with Gαo
VALUE_KIND: D2 basal (basal response, no drug = 100%)

Worked set:
OCCN1CCN(CC/C=C2\c3ccccc3Sc3ccc(C(F)(F)F)cc32)CC1 [trans-(e)-flupenthixol] :: 68 +/− 4%
Cc1nc2n(c(=O)c1CCN1CCC(c3noc4cc(F)ccc34)CC1)CCCC2 :: 63 +/− 2%
O=C(CCCN1CCC2(CC1)C(=O)NCN2c1ccccc1)c1ccc(F)cc1 :: 51 +/− 1%
OCCN1CCN(CC/C=C2/c3ccccc3Sc3ccc(C(F)(F)F)cc32)CC1 [cis-flupenthixol] :: 59 +/− 4%

Here's the next entry for you.
stdin: Query D2 basal (basal response, no drug = 100%) on human D2 dopamine receptor (Homo sapiens) for Cc1cc2c(s1)Nc1ccccc1N=C2N1CCN(C)CC1
stdout: 83 +/− 6%

###

Target: human D3 dopamine receptor (Homo sapiens)
Sequence (P35462 whole entry): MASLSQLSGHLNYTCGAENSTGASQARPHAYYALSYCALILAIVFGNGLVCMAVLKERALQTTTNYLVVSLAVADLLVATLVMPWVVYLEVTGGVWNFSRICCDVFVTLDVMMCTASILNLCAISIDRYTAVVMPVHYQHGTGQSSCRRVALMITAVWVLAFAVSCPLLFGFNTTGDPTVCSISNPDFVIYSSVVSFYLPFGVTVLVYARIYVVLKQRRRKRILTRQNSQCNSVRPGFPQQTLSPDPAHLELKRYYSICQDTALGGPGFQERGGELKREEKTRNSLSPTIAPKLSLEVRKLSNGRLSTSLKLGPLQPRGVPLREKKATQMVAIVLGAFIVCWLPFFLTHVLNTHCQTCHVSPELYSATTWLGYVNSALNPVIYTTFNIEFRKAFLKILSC
Experiment: R-SAT functional receptor assay, D3 receptor co-expressed with Gαo
Settings: read-out: D3 basal (basal response, no drug = 100%)
Short version: activity at 1 µM at least 70% is Condition met, less is Condition not met.

Example entries begin here.
CCN(CC)CCNC(=O)c1cc(S(C)(=O)=O)ccc1OC [tiapride] :: Condition not met
CN1CCN(CCCN2c3ccccc3Sc3ccc(Cl)cc32)CC1 :: Condition not met
CN1CCN(C2=Nc3ccccc3Cc3ccccc32)CC1 :: Condition met
CSc1ccc2c(c1)N(CCC1CCCCN1C)c1ccccc1S2 (stereo not shown) :: Condition met
Cc1ccc(C2(O)CCN(CCCC(=O)c3ccc(F)cc3)CC2)cc1 :: Condition not met
OCCN1CCN(CCCN2c3ccccc3Sc3ccc(C(F)(F)F)cc32)CC1 :: Condition not met
O=c1[nH]c2ccccc2n1C1CCN(CCCC(c2ccc(F)cc2)c2ccc(F)cc2)CC1 [pimozide] :: Condition not met
CCc1c(C)[nH]c2c1C(=O)C(CN1CCOCC1)CC2 (stereo not shown) :: Condition not met
CC1CCN(CCCC(=O)c2ccc(F)cc2)CC1 :: Condition met
O=C(CCCN1CCC(O)(c2ccc(Br)cc2)CC1)c1ccc(F)cc1 :: Condition not met

stdin: Would you say CN(C)CCCN1c2ccccc2Sc2ccccc21 shows activity at 1 µM at minimum 70%?
stdout: Condition met

stdin: Would you say O=C1NCN(c2ccccc2)C12CCN(CCCC(c1ccc(F)cc1)c1ccc(F)cc1)CC2 shows activity at 1 µM at minimum 70%?
stdout: Condition not met

stdin: Would you say Clc1ccc2c(c1)N=C(N1CCNCC1)c1ccccc1N2 shows activity at 1 µM at minimum 70%?
stdout: Condition met

stdin: Would you say OCCN1CCN([C@@H]2C[C@@H](c3ccc(F)cc3)c3ccc(C(F)(F)F)cc32)CC1 (racemic) shows activity at 1 µM at minimum 70%?
stdout: Condition not met

stdin: Would you say O=C(CCCN1CCC(O)(c2cccc(C(F)(F)F)c2)CC1)c1ccc(F)cc1 shows activity at 1 µM at minimum 70%?
stdout: Condition not met

###

Target: human D2 receptors (Homo sapiens, UniProt P14416)
Sequence (P14416 whole entry): as the sequence (P14416 whole entry) above
Test: competitive radioligand D2 binding assay, (Methoxy-3H)-raclopride, membranes of transfected HEK-293T cells
Conditions: mean of one or two experiments; butaclamol as control
VALUE_KIND: Ki
Just so you know, I need the unit written after the number.

stdin: I would be grateful if you could share the reported Ki for Fc1ccc2c(c1)N=C(N1CCNCC1)c1ccccc1N2 .
stdout: 2510 nM

stdin: I would be grateful if you could share the reported Ki for Cc1cccc2c1Oc1ccc(Cl)cc1N=C2N1CCNCC1 .
stdout: 316 nM

###

Molecular target: human D2 dopamine receptor (Homo sapiens, UniProt P14416)
Assay: R-SAT functional receptor assay, D2 receptor co-expressed with Gαo
Conditions: read-out: D2 basal (basal response, no drug = 100%)
VALUE_KIND: activity at 1 µM
Just so you know, I need the unit written after the number.

O=C1NCCN1CCN1CCC(c2cn(-c3ccc(F)cc3)c3ccc(Cl)cc23)CC1 :: 61%
CCN1CCCC1CNC(=O)c1cc(S(N)(=O)=O)ccc1OC (stereo not drawn) [sulpiride] :: 59%

Here's the next entry for you.
stdin: I would be grateful if you could share the reported activity at 1 µM for OCCN1CCN(CCCN2c3ccccc3Sc3ccc(C(F)(F)F)cc32)CC1 .
stdout: 61%

###

Molecular target: human D2 receptors (Homo sapiens, UniProt P14416)
Construct: expressed in transfected cells; host or cells: HEK-293T
Test: competitive radioligand D2 binding assay, (Methoxy-3H)-raclopride, membranes of transfected HEK-293T cells
Settings: mean of one or two experiments; butaclamol as control
pKi: −log10 of the molar value.
Short version: pKi at least 6 is True, less is False.

Cc1cccc2c1Oc1ccc(C(F)(F)F)cc1N=C2N1CCNCC1 :: False

stdin: Would you say Clc1ccc2c(c1)N=C(NC[C@@H]1CCCN1)c1ccccc1N2 shows pKi at minimum 6?
stdout: False

stdin: Would you say Clc1ccc2c(c1)N=C(N1CCCNCC1)c1ccccc1N2 shows pKi at minimum 6?
stdout: False

stdin: Would you say Fc1ccc2c(c1)N=C(N1CCNCC1)c1ccccc1O2 shows pKi at minimum 6?
stdout: True

###

Molecular target: human D2 receptors (Homo sapiens, UniProt P14416)
Test: competitive radioligand D2 binding assay, (Methoxy-3H)-raclopride, membranes of transfected HEK-293T cells
Conditions: mean of one or two experiments; butaclamol as control
Measured log10 of Ki of individual entries
Field: value | Transform: log10 | Quantity: Ki | Unit: nM

Worked set:
Cc1cccc2c1Oc1ccc(Br)cc1N=C2N1CCNCC1 :: 2.90
CN1c2ccc(Cl)cc2N=C(N2CCNCC2)c2ccccc21 :: 2.90
Clc1ccc2c(c1)N=C(N1CCNCC1)c1ccccc1O2 :: 2.40
Cc1cccc2c1Oc1ccc(F)cc1N=C2N1CCNCC1 :: 2.50

stdin: I would be grateful if you could share the reported log10 of Ki for Clc1ccc2c(c1)N=C(N1CC3CC1CN3)c1ccccc1N2 (stereo not shown) .
stdout: 3.40

stdin: I would be grateful if you could share the reported log10 of Ki for N#Cc1ccc2c(c1)N=C(N1CCNCC1)c1ccccc1N2 .
stdout: 3.70
